assay: Noncompetitive inhibition of Xanthomonas oryzae pv. Oryzae KS-1-21 GlmU using varying concentration of UTP and 500 uM GlcNAc-1-p by Lineweaver-Burk plot analysis
pKi: −log10 of the molar value.

{"chemSmiles": "Cc1cc(OCC(=O)NNC(=O)c2ccc(O)cc2O)cc(C)c1Cl", "pKi": 5.05}

====

assay: Noncompetitive inhibition of Xanthomonas oryzae pv. Oryzae KS-1-21 GlmU using 0.25 to 0.05 mM GlcNAc-1-p and 500 uM UTP by Lineweaver-Burk plot analysis
pKi: −log10 of the molar value.

{"chemSmiles": "Cc1cc(OCC(=O)NNC(=O)c2ccc(O)cc2O)cc(C)c1Cl", "pKi": 4.71}

====

assay: Uncompetitive inhibition of Xanthomonas oryzae pv. Oryzae KS-1-21 GlmU using varying concentration of UTP and 500 uM GlcNAc-1-p by Lineweaver-Burk plot analysis
pKi: −log10 of the molar value.

{"compound": "O=c1cc(-c2ccc(O)c(O)c2)oc2cc(O)cc(O)c12 [LUTEOLIN]", "pKi": 6.00}

====

test: Uncompetitive inhibition of Xanthomonas oryzae pv. Oryzae KS-1-21 GlmU using 0.25 to 0.05 mM GlcNAc-1-p and 500 uM UTP by Lineweaver-Burk plot analysis
attributeMeasured: Ki (µM)

{"chemSmiles": "O=C(CCCCC(=O)NNC(=O)COc1ccc2ccccc2c1)NNC(=O)COc1ccc2ccccc2c1", "measured": 8.23}

====

test: Inhibition of Xanthomonas oryzae pv. oryzae KS-1-21 uridyltransferase domain of GlmU activity by ion-pair reverse-phase HPLC analysis
attributeMeasured: log10 of IC50 (log10 of the value in µM)

{"molecule": "Cc1cc(OCC(=O)NNC(=O)c2ccc(O)cc2O)cc(C)c1Cl", "log10 of IC50": 1.37}
{"molecule": "O=c1cc(-c2ccc(O)c(O)c2)oc2cc(O)cc(O)c12 [LUTEOLIN]", "log10 of IC50": -0.09}
{"molecule": "CCN(CC)c1ccc(/C=C(\\NC(=O)c2ccccc2)C(=O)N/N=C/c2cc(O)ccc2Br)cc1", "log10 of IC50": 1.80}
{"molecule": "CCCCCOc1ccc(/C=N/NC(=O)c2nnn(-c3nonc3N)c2CN2CCCCCC2)cc1", "log10 of IC50": 1.94}
{"molecule": "CCOc1ccc(C(=O)NCCCCCCCNC(=O)c2ccc(OCC)cc2)cc1", "log10 of IC50": 1.88}
{"molecule": "Cc1ccc(OCC(=O)Nc2ccccc2C(=O)NC2CCCCC2)cc1", "log10 of IC50": 1.93}
{"molecule": "O=C(CCCCC(=O)NNC(=O)COc1ccc2ccccc2c1)NNC(=O)COc1ccc2ccccc2c1", "log10 of IC50": 1.15}

Data origin: ChEMBL document CHEMBL2034939
